# target.desc: Muscarinic non -selective, central
# experimental.protocol: Pharmacological screen, muscarinic receptor binding
Structures can show the parent of a compound that is named as a salt.
Here, each record is paired with measured IC50 data.
measured.parameter: IC50

[[record]]
compound = "CC(C(=O)c1cccc(Cl)c1)N(C)C(C)(C)C (racemic) [Compound 4, Rac-N-methyl bupropion]"
assay_value = "39.3 µM"

[[record]]
compound = "CC(NC(C)(C)C)C(=O)c1cccc(Cl)c1 (racemic) [Bupropion, Rac-bupropion hydrochloride, reference compound]"
assay_value = "86.5 µM"


====

# target.desc: UniProt:P23975
# Sequence (P23975 whole entry): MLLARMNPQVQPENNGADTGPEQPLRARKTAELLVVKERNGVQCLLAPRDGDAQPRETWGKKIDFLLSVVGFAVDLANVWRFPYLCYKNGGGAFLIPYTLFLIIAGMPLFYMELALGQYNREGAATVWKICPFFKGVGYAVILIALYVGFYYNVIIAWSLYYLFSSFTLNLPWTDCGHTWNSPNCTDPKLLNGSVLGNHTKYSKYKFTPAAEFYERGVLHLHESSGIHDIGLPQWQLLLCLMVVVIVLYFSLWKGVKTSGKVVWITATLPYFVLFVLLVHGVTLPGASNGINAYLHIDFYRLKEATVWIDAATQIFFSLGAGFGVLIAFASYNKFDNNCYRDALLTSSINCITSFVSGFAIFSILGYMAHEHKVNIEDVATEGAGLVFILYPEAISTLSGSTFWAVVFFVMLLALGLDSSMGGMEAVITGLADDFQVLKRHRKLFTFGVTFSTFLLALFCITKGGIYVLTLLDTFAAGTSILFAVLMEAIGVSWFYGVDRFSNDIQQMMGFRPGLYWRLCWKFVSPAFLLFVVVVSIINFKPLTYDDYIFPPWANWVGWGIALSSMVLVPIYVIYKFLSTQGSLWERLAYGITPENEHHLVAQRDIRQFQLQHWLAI
measured.parameter: IC50 (µM)

[[record]]
compound = "CC(C(=O)c1cccc(Cl)c1)N(C)C(C)(C)C (racemic) [Compound 4, Rac-N-methyl bupropion]"
target_desc = "UniProt:P23975"
measured_parameter = "IC50"
unit_label = "µM"
assay_value = 57.9

